- SUBJECT_OF_TEST: T1, class I MHC receptor HLA-A2 on T2 cells (human)
- T1 construct: detected on the cell surface with a mouse anti-human HLA-A2 monoclonal antibody and goat anti-mouse IgG F(ab')2-FITC; also called HLA-A2 receptor; HLA-A2 class I MHC
- ASSAY_SUMMARY: T2 cells, anti-HLA-A2 flow cytometry after brefeldin A; Assay #2; 8 hr
MEASURE_NAME: fluorescence index (F.I.)

Recorded results for 2 binders are shown here.
>  <BINDER>
SLQESGLKV [Filamin B peptide #4]

>  <UNIT_INFO>
F.I.

>  <fluorescence index>
1

$$$$
>  <BINDER>
GQGDVMVFV [Filamin B peptide #6]

>  <UNIT_INFO>
F.I.

>  <fluorescence index>
1

$$$$

a = LILGLVWTL [Filamin B peptide #1]
b = KLILGLVWT [Filamin B peptide #7]
c = GLAPLEVRV [Filamin B peptide #3]
# input Kindly order the items shown according to fluorescence index, from the highest value down. Put the labels in the requested order and write them down.
# output c, a, b
(c: 2.89 F.I., a: 1.57 F.I., b: 1 F.I.)
